Value source: ChEMBL document CHEMBL1153280

Tested on: Enterococcus faecium
TEST_METHOD_NOTES: Antibacterial activity against vancomycin-resistant Enterococcus faecium ATCC 700221 by NCCLS method
Type: functional
RESULT_TYPE: MIC (µg/mL)

CCC(C)NC(=N)c1ccc2[nH]c(-c3ccc(CCc4ccc(-c5nc6cc(C(=N)NC(C)CC)ccc6[nH]5)cc4)cc3)nc2c1 (stereo not drawn) ... 0.5
COc1ccc(CCc2ccc(-c3nc4ccc(C(=N)NC(C)C)cc4[nH]3)cc2)cc1 ... 8
N=C(NC1CCCC1)c1ccc2[nH]c(-c3ccc(CCc4ccc(-c5nc6cc(C(=N)NC7CCCC7)ccc6[nH]5)cc4)cc3)nc2c1 ... 0.25
CC(C)NC(=N)c1ccc2[nH]c(-c3ccc(CCc4ccc(-c5nc6cc(C(=N)NC(C)C)ccc6[nH]5)cc4)cc3)nc2c1 ... 0.12
CC(C)NC(=N)c1ccc2[nH]c(-c3ccc(CCc4cc(-c5nc6cc(C(=N)NC(C)C)ccc6[nH]5)cs4)cc3)nc2c1 ... 0.25
CC(C)NC(=N)c1ccc(CCc2ccc(-c3nc4cc(C(=N)NC(C)C)ccc4[nH]3)cc2)cc1 ... 1

* * *

Test system: Bacillus subtilis
TEST_METHOD_NOTES: Antibacterial activity against Bacillus subtilis ATCC 23857 by NCCLS method
Assay type: functional
// MIC lookup, one value per entry
RESULT_TYPE: MIC (µg/mL)

N=C(c1ccc2[nH]c(-c3ccc(CCc4ccc(-c5nc6cc(C(=N)N7CCCC7)ccc6[nH]5)cc4)cc3)nc2c1)N1CCCC1 ... 2
CN[C@H](CC(C)C)C(=O)N[C@H]1C(=O)N[C@@H](CC(N)=O)C(=O)N[C@H]2C(=O)N[C@H]3C(=O)N[C@H](C(=O)N[C@H](C(=O)O)c4cc(O)cc(O)c4-c4cc3ccc4O)[C@H](O)c3ccc(c(Cl)c3)Oc3cc2cc(c3O[C@@H]2O[C@H](CO)[C@@H](O)[C@H](O)[C@H]2O[C@H]2C[C@](C)(N)[C@H](O)[C@H](C)O2)Oc2ccc(cc2Cl)[C@H]1O [VANCOMYCIN] ... 0.12
CC(C)NC(=N)c1ccc2[nH]c(-c3ccc(CCc4ccc(-c5nc6cc(C(=N)NC(C)C)ccc6[nH]5)nc4)cc3)nc2c1 ... 1
N=C(N)c1ccc2[nH]c(-c3ccc(CCc4ccc(-c5nc6cc(C(=N)N)ccc6[nH]5)cc4)cc3)nc2c1 ... 32
CC(C)NC(=N)c1ccc2[nH]c(-c3ccc(CCc4ccc(-c5nc6cc(C(=N)NC(C)C)ccc6[nH]5)cc4)cc3)nc2c1 ... 0.12
CCCCNC(=N)c1ccc2[nH]c(-c3ccc(CCc4ccc(-c5nc6cc(C(=N)NCCCC)ccc6[nH]5)cc4)cc3)nc2c1 ... 1
CC(C)NC(=N)c1ccc2[nH]c(-c3ccc(CCc4ccc(-c5nc6cc(C(=N)NC(C)C)ccc6[nH]5)cn4)cc3)nc2c1 ... 32
N=C(NC1CCCC1)c1ccc2[nH]c(-c3ccc(CCc4ccc(-c5nc6cc(C(=N)NC7CCCC7)ccc6[nH]5)cc4)cc3)nc2c1 ... 1

* * *

System: Enterococcus faecium
TEST_METHOD_NOTES: Antibacterial activity against vancomycin-resistant Enterococcus faecium ATCC 700221 by NCCLS method
Assay type: functional
// MIC lookup, one value per entry
RESULT_TYPE: MIC (µg/mL)

CC(C)NC(=N)c1ccc2[nH]c(-c3ccc(CCc4ccc(-c5nc6cc(C(=N)NC(C)C)ccc6[nH]5)nc4)cc3)nc2c1 ... 1
CC(C)NC(=N)c1ccc2[nH]c(-c3ccc(CCc4ccc(-c5nc6ccccc6[nH]5)cc4)cc3)nc2c1 ... 16
N=C(c1ccc2[nH]c(-c3ccc(CCc4ccc(-c5nc6cc(C(=N)N7CCCC7)ccc6[nH]5)cc4)cc3)nc2c1)N1CCCC1 ... 2
